# Study System: UniProt P29371
# Sequence (P29371 whole entry): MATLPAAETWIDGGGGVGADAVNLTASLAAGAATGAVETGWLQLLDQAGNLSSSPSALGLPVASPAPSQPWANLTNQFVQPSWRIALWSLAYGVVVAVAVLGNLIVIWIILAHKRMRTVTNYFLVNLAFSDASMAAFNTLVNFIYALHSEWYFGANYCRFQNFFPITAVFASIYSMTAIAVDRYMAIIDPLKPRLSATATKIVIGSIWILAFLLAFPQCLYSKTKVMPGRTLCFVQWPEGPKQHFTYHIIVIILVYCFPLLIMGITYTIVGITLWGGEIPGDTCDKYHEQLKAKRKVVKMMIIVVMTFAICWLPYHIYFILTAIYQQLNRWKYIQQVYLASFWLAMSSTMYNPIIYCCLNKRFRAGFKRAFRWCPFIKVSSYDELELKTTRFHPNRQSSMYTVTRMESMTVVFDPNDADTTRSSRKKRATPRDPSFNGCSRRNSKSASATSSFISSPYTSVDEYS
# Test Method Notes: Signal transduction (ST), intracellular Ca++ (FLIPR), NK3
# Assay type: cell-based
# Assay Conditions: read-out: pIC50 NK3 (converted)
Catalogue of IC50 values
Express the result in nM but write the number alone.

query: Indicate its recorded IC50; the molecule in question is `O=C(c1cccs1)N1CC[C@@H](N2CCN([C@H]3CCN(C(=O)c4cc(C(F)(F)F)cc(C(F)(F)F)c4)[C@H](Cc4ccccc4)C3)CC2)C1`
result: 251

query: Indicate its recorded IC50; the molecule in question is O=C(C1CCOC1)N1CCC(N2CCN(C3CCN(C(=O)c4cc(C(F)(F)F)cc(C(F)(F)F)c4)C(Cc4ccc(F)c(F)c4)C3)CC2)C1 (single isomer, unassigned) [Compound 281]
result: 3160

query: Indicate its recorded IC50; the molecule in question is CC(C)(C)OC(=O)N1CCCCC1C(=O)N1CCC(N2CCN(C3CCN(C(=O)c4cc(C(F)(F)F)cc(C(F)(F)F)c4)C(Cc4ccccc4)C3)CC2)C1 (stereo not drawn)
result: 251

query: Indicate its recorded IC50; the molecule in question is O=C(c1ccccc1Cl)N1CCC(N2CCN(C3CCN(C(=O)c4cc(C(F)(F)F)cc(C(F)(F)F)c4)C(Cc4ccc(F)c(F)c4)C3)CC2)C1 (stereo not drawn) [Compound 255]
result: 398

query: Indicate its recorded IC50; the molecule in question is O=C(c1cccs1)N1CCC(N2CCN(C3CCN(C(=O)c4cc(C(F)(F)F)cc(C(F)(F)F)c4)C(Cc4ccc(F)c(F)c4)C3)CC2)C1 (single isomer, unassigned) [Compound 254]
result: 501

***
query: Indicate its recorded IC50; the molecule in question is O=C(C1CCOC1)N1CCC(N2CCN(C3CCN(C(=O)c4cc(C(F)(F)F)cc(C(F)(F)F)c4)C(Cc4ccc(F)c(F)c4)C3)CC2)C1 (single isomer, unassigned) [Compound 227]
result: 1580

query: Indicate its recorded IC50; the molecule in question is O=C(C(=O)N1CCC(N2CCN(C3CCN(C(=O)c4cc(C(F)(F)F)cc(C(F)(F)F)c4)C(Cc4ccccc4)C3)CC2)C1)c1ccco1 (stereo not drawn) [Compound 64]
result: 158

query: Indicate its recorded IC50; the molecule in question is O=C(c1ccno1)N1CCC(N2CCN([C@H]3CCN(C(=O)c4cc(C(F)(F)F)cc(C(F)(F)F)c4)[C@H](Cc4ccccc4)C3)CC2)C1 (stereo partly drawn)
result: 1580

query: Indicate its recorded IC50; the molecule in question is CC(C(=O)N1CCC(N2CCN([C@H]3CCN(C(=O)c4cc(C(F)(F)F)cc(C(F)(F)F)c4)[C@H](Cc4ccc(F)c(F)c4)C3)CC2)C1)c1ccccc1 (single isomer, unassigned)
result: 794

query: Indicate its recorded IC50; the molecule in question is O=C(c1ccccc1F)N1CCC(N2CCN([C@H]3CCN(C(=O)c4cc(C(F)(F)F)cc(C(F)(F)F)c4)[C@H](Cc4ccccc4)C3)CC2)C1 (stereo partly drawn)
result: 2510

query: Indicate its recorded IC50; the molecule in question is `O=C(C1CCCCC1)N1CC[C@H](N2CCN([C@H]3CCN(C(=O)c4cc(C(F)(F)F)cc(C(F)(F)F)c4)[C@H](Cc4ccc(Cl)c(Cl)c4)C3)CC2)C1`
result: 501

query: Indicate its recorded IC50; the molecule in question is `O=C(c1ccsc1)N1CC[C@H](N2CCN([C@@H]3CCN(C(=O)c4cc(C(F)(F)F)cc(C(F)(F)F)c4)[C@@H](Cc4ccc(Cl)c(Cl)c4)C3)CC2)C1`
result: 5010

query: Indicate its recorded IC50; the molecule in question is O=C(C1CC1)N1CCC(N2CCN([C@H]3CCN(C(=O)c4cc(C(F)(F)F)cc(C(F)(F)F)c4)[C@H](Cc4ccc(Cl)c(Cl)c4)C3)CC2)C1 (relative stereo)
result: 501

query: Indicate its recorded IC50; the molecule in question is `CC(C)(C)C(=O)N1CC[C@@H](N2CCN([C@H]3CCN(C(=O)c4cc(C(F)(F)F)cc(C(F)(F)F)c4)[C@H](Cc4ccc(Cl)c(Cl)c4)C3)CC2)C1`
result: 794

query: Indicate its recorded IC50; the molecule in question is CC(C)(C)OC(=O)N1CCC(C(=O)N2CCC(N3CCN([C@H]4CCN(C(=O)c5cc(C(F)(F)F)cc(C(F)(F)F)c5)[C@H](Cc5ccccc5)C4)CC3)C2)CC1 (stereo partly drawn)
result: 7940

query: Indicate its recorded IC50; the molecule in question is CC(C)(C)OC(=O)N1CCC[C@@H]1C(=O)N1CCC(N2CCN([C@H]3CCN(C(=O)c4cc(C(F)(F)F)cc(C(F)(F)F)c4)[C@H](Cc4ccccc4)C3)CC2)C1 (stereo partly drawn)
result: 251

query: Indicate its recorded IC50; the molecule in question is O=C(c1cnc2ccccc2n1)N1CCC(N2CCN([C@H]3CCN(C(=O)c4cc(C(F)(F)F)cc(C(F)(F)F)c4)[C@H](Cc4ccccc4)C3)CC2)C1 (stereo partly drawn)
result: 2510

query: Indicate its recorded IC50; the molecule in question is O=C(C1CC1)N1CCC(N2CCN(C3CCN(C(=O)c4cc(C(F)(F)F)cc(C(F)(F)F)c4)C(Cc4ccccc4)C3)CC2)C1 (single isomer, unassigned) [Compound 137]
result: 6310

query: Indicate its recorded IC50; the molecule in question is O=C(C(c1ccccc1)N1CCCC1)N1CCC(N2CCN(C3CCN(C(=O)c4cc(C(F)(F)F)cc(C(F)(F)F)c4)C(Cc4ccccc4)C3)CC2)C1 (stereo not drawn)
result: 2510

query: Indicate its recorded IC50; the molecule in question is Cn1c(C(=O)N2CCC(N3CCN([C@H]4CCN(C(=O)c5cc(C(F)(F)F)cc(C(F)(F)F)c5)[C@H](Cc5ccccc5)C4)CC3)C2)cc2ccccc21 (stereo partly drawn)
result: 3160

query: Indicate its recorded IC50; the molecule in question is O=C(c1cccs1)N1CCC(N2CCN(C3CCN(C(=O)c4cc(C(F)(F)F)cc(C(F)(F)F)c4)C(Cc4ccc(Cl)c(Cl)c4)C3)CC2)C1 (stereo not drawn)
result: 398
